target under test: PRMT3 (Homo sapiens)
Sequence (O60678 211-531): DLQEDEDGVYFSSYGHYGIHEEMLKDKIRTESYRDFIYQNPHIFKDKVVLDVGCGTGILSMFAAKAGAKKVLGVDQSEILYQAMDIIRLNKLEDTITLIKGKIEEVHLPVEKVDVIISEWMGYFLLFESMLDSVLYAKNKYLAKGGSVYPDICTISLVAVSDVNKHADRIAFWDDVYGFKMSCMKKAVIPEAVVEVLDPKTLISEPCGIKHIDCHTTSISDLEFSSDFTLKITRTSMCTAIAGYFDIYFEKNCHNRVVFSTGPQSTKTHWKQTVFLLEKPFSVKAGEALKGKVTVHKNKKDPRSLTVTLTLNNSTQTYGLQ
assay info: SAHH-coupled fluorescence assay, inhibition of PRMT3
Type: biochemical
Design: PRMT3 (residues 211-531) was cloned into the pET28a-MHL expression vector; tag of the pET28a-MHL vector (not described); made in house; host or cells: Escherichia coli BL21(DE3)
assay readout: inhibition at 10 µM (%)

Nc1ncnc2c1ncn2[C@@H]1O[C@H](CSCCCNCc2cccc(-c3ccc(O)cc3)c2)[C@@H](O)[C@H]1O [Compound 10n]: 21
Nc1ncnc2c1ncn2[C@@H]1O[C@H](CSCCNC(=O)Nc2ccc(Cl)cc2)[C@@H](O)[C@H]1O: 30

[A] N=C(NCCSC[C@H]1O[C@@H](n2cnc3c(N)ncnc32)[C@H](O)[C@@H]1O)Nc1cccc(-c2ccoc2)c1
[B] Nc1ncnc2c1ncn2[C@@H]1O[C@H](CSCCNCc2cccc(-c3ccoc3)c2)[C@@H](O)[C@H]1O [Compound 10d]
[C] Nc1ncnc2c1ncn2[C@@H]1O[C@H](CSCCCNC(=O)NCCc2ccccc2)[C@@H](O)[C@H]1O
[D] Nc1ncnc2c1ncn2[C@@H]1O[C@H](CSCCCNCc2cccc(-c3ccc(C(F)(F)F)cc3)c2)[C@@H](O)[C@H]1O [Compound 10o]
[E] Nc1ncnc2c1ncn2[C@@H]1O[C@H](CSCCNCc2cccc(-c3ccccc3O)c2)[C@@H](O)[C@H]1O [Compound 10j]
rank_up(items): orders items by reported inhibition at 10 µM in ascending numerical order. A ranking is expressed here by listing the labels in the requested order.
B, C, E, D, A
(B: 1%, C: 6%, E: 10%, D: 24%, A: 48%)

[A] N=C(NCCCSC[C@H]1O[C@@H](n2cnc3c(N)ncnc32)[C@H](O)[C@@H]1O)Nc1ccccc1
[B] Nc1ncnc2c1ncn2[C@@H]1O[C@H](CSCCOc2ccc(-c3cccc(O)c3)cc2)[C@@H](O)[C@H]1O [Compound 14f]
Please state the entry with greater inhibition at 10 µM among A and B . Respond using the label that marks the chosen record.
A
(A: 54%, B: 5%)

[A] N=C(NCCCSC[C@H]1O[C@@H](n2cnc3c(N)ncnc32)[C@H](O)[C@@H]1O)Nc1cccc(-c2ccc(F)nc2)c1
[B] Nc1ncnc2c1ncn2[C@@H]1O[C@H](CSCCCNCc2cccc(-c3ccoc3)c2)[C@@H](O)[C@H]1O [Compound 10p]
[C] Nc1ncnc2c1ncn2[C@@H]1O[C@H](CSCCNC(=O)NCc2ccc3cnccc3c2)[C@@H](O)[C@H]1O
Sequence the entries by inhibition at 10 µM, beginning with the highest number. Submit the labels in the order that the ranking request calls for.
A, B, C

* * *

target under test: PRMT1 (Homo sapiens)
Construct: made in house
assay info: SAHH-coupled fluorescence assay, inhibition of PRMT1
Type: biochemical
assay readout: inhibition at 10 µM (%)

In the examples that follow, each entry is paired with its recorded inhibition at 10 µM.
Nc1ncnc2c1ncn2[C@@H]1O[C@H](CSCCNC(=O)Nc2ccc(Cl)cc2)[C@@H](O)[C@H]1O [Compound 7k]: 7
Nc1ncnc2c1ncn2[C@@H]1O[C@H](CSCCOc2ccc(-c3ccncc3)cc2)[C@@H](O)[C@H]1O [Compound 14h]: 10
N=C(NCCCSC[C@H]1O[C@@H](n2cnc3c(N)ncnc32)[C@H](O)[C@@H]1O)Nc1cccc(Br)c1 [Compound 5f]: 94
N=C(NCCSC[C@H]1O[C@@H](n2cnc3c(N)ncnc32)[C@H](O)[C@@H]1O)Nc1cccc(-c2cccc(F)c2)c1 [Compound 6d]: 68

[I] Nc1ncnc2c1ncn2[C@@H]1O[C@H](CSCCNC(=O)Nc2ccccc2)[C@@H](O)[C@H]1O [Compound 7f]
[II] N=C(NCCCSC[C@H]1O[C@@H](n2cnc3c(NCCCc4ccccc4)ncnc32)[C@H](O)[C@@H]1O)NCC1CC1 [Compound 19f]
[III] Nc1ncnc2c1ncn2[C@@H]1O[C@H](CSCCOc2ccc(-c3ccc(F)c(O)c3)cc2)[C@@H](O)[C@H]1O [Compound 14d]
Which order do these items take when sorted by rising inhibition at 10 µM? List them. Present the labels in the sequence the task asks for.
I, III, II

* * *

target under test: PRMT1 (Homo sapiens, UniProt Q99873)
Construct: made in house
Sequence (Q99873 whole entry, species assumed): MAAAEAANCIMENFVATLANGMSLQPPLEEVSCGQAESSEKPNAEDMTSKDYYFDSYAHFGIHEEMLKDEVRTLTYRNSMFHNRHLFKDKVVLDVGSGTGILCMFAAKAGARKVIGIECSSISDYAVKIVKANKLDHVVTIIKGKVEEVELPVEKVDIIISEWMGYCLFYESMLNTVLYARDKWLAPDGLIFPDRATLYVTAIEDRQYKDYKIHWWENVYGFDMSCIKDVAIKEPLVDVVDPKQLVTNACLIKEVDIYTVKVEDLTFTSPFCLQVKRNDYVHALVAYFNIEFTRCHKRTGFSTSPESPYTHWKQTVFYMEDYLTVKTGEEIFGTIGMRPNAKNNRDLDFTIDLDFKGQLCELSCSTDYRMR
assay info: SAHH-coupled fluorescence assay, inhibition of PRMT1
Assay type: biochemical
Description: A fluorescence-based SAHH-coupled assay was applied to study the inhibition activity of all synthesized compounds on PRMT 1 and 3. […] A fluorescence-based SAHH-coupled assay was applied to determine the inhibition activity of all synthesized compounds on PRMT 1 and 3. […] The fluorescence signal was monitored on a BMG CLARIOstar microplate reader with excitation at 400 nm and emission at 465 nm for 15 min. […]
assay readout: inhibition at 10 µM (%)

Consider the worked cases shown below.
Nc1ncnc2c1ncn2[C@@H]1O[C@H](CSCCNC(=O)NCc2ccc3cnccc3c2)[C@@H](O)[C@H]1O [Compound 7e]: 6
N=C(NCCCSC[C@H]1O[C@@H](n2cnc3c(NCCCc4ccccc4)ncnc32)[C@H](O)[C@@H]1O)NC1CCCCC1 [Compound 19e]: 89

[A] Nc1ncnc2c1ncn2[C@@H]1O[C@H](CSCCNCc2cccc(-c3cccc(O)c3)c2)[C@@H](O)[C@H]1O [Compound 10i]
[B] Nc1cccc(-c2cccc(CNCCSC[C@H]3O[C@@H](n4cnc5c(N)ncnc54)[C@H](O)[C@@H]3O)c2)c1 [Compound 10l]
[C] N=C(NCCCSC[C@H]1O[C@@H](n2cnc3c(NCCCc4ccccc4)ncnc32)[C@H](O)[C@@H]1O)NCc1ccccc1 [Compound 19k]
[D] N=C(NCCCSC[C@H]1O[C@@H](n2cnc3c(N)ncnc32)[C@H](O)[C@@H]1O)Nc1cccc(F)c1 [Compound 7s]
[E] Nc1ncnc2c1ncn2[C@@H]1O[C@H](CSCCNC(=O)NCc2ccc(-c3cn[nH]c3)cc2)[C@@H](O)[C@H]1O [Compound 8g]
Arrange the 5 compounds from largest to smallest inhibition at 10 µM. Give the labels in the order requested.
C, D, A, B, E

[1] Nc1ncnc2c1ncn2[C@@H]1O[C@H](CSCCCNC(=O)NCCCc2ccccc2)[C@@H](O)[C@H]1O [Compound 7q]
[2] N=C(NCCCSC[C@H]1O[C@@H](n2cnc3c(N)ncnc32)[C@H](O)[C@@H]1O)NCc1ccccc1 [Compound 5e]
Compare the recorded inhibition at 10 µM of 1 and 2 ; state which is larger. Kindly state the label of the option you pick.
2

[I] Nc1ncnc2c1ncn2[C@@H]1O[C@H](CSCCNC(=O)Nc2ccc(F)cc2)[C@@H](O)[C@H]1O [Compound 7j]
[II] N=C(NCCCSC[C@H]1O[C@@H](n2cnc3c(N)ncnc32)[C@H](O)[C@@H]1O)Nc1cccc(-c2cccnc2)c1 [Compound 6m]
Returns: the argument ( I or II ) having the larger inhibition at 10 µM. Field: selected label. Fill in the label of the entry you choose.
II

* * *

target under test: PRMT4 (Homo sapiens)
Sequence (Q86X55 1-608): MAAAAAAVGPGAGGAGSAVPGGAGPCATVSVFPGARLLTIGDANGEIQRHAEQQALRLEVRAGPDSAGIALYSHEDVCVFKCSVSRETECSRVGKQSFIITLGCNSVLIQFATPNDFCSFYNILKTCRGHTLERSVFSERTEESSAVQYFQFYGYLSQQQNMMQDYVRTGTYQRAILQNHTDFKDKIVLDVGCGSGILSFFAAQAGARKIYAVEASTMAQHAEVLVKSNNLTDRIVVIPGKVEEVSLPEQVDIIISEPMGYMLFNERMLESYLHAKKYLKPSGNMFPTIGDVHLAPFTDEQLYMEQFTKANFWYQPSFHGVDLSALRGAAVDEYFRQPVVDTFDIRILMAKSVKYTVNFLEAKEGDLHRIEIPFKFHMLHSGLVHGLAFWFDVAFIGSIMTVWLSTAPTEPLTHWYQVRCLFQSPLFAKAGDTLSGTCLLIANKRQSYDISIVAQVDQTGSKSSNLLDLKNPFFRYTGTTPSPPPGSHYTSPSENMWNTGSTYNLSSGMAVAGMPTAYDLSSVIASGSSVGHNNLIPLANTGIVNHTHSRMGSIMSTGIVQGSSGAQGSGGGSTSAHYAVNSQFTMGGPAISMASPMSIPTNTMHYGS
assay info: radioactive assay (Reaction Biology Corp.), inhibition of PRMT4
Type: biochemical
assay readout: inhibition at 10 µM (%)

COc1cc2nc(-c3ccc(O)cc3)nc(NCCSC[C@H]3O[C@@H](n4cnc5c(N)ncnc54)[C@H](O)[C@@H]3O)c2cc1OC [Compound 12b]: -4
Nc1ncnc2c1ncn2[C@@H]1O[C@H](CSCCNC(=O)NCc2ccc3cnccc3c2)[C@@H](O)[C@H]1O [Compound 7e]: 30
N=C(NCCCSC[C@H]1O[C@@H](n2cnc3c(NCCCc4ccccc4)ncnc32)[C@H](O)[C@@H]1O)NC1CC1 [Compound 19b]: 23
Nc1ncnc2c1ncn2[C@@H]1O[C@H](CSCCNCc2cccc(-c3cccc4cn[nH]c34)c2)[C@@H](O)[C@H]1O [Compound 10h]: 100

[1] N=C(NCCSC[C@H]1O[C@@H](n2cnc3c(N)ncnc32)[C@H](O)[C@@H]1O)Nc1cccc(I)c1 [Compound 5c]
[2] Nc1ncnc2c1ncn2[C@@H]1O[C@H](CSCCOc2ccc(-c3cncnc3)cc2)[C@@H](O)[C@H]1O [Compound 14e]
[3] Nc1ncnc2c1ncn2[C@@H]1O[C@H](CSCCOc2ccc(-c3ccc(Cl)cc3)cc2)[C@@H](O)[C@H]1O [Compound 14a]
Sort these compounds on inhibition at 10 µM so the largest reading comes first. Returns: the labels arranged in the requested order.
1, 3, 2
(1: 100%, 3: 47%, 2: 22%)
